systemUnderTest: D816V Kit (Homo sapiens, UniProt P10721, D816V)
Sequence (P10721 26-976 D816V): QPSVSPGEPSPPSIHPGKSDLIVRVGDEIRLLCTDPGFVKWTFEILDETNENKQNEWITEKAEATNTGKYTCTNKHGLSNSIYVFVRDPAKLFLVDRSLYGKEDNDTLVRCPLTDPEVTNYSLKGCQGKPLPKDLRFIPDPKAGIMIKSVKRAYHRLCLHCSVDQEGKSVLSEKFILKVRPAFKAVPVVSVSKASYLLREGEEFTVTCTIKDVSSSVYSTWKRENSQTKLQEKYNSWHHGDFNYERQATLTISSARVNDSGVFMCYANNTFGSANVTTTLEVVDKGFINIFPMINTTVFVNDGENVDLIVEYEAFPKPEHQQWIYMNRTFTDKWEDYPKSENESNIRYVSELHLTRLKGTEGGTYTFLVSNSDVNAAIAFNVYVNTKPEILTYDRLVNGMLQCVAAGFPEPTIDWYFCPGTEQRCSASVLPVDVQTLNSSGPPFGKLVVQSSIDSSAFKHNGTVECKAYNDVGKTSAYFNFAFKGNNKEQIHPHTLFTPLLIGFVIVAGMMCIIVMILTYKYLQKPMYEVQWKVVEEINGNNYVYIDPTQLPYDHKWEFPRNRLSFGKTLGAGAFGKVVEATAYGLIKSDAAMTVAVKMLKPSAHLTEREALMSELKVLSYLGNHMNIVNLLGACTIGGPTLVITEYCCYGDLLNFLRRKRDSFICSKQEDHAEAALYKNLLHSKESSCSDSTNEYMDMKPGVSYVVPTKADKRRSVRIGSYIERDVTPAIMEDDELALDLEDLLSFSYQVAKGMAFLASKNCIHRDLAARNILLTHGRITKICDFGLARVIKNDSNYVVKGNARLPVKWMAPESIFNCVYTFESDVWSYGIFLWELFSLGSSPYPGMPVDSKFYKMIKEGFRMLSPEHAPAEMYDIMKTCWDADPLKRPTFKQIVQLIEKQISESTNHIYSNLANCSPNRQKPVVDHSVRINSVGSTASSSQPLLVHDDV
assayOverview: Kit D816V assay at Km (Caliper electrophoretic mobility shift)
recordedConditions: 15 uM ATP, 25 C, 90 minutes
Listed here: items and their measured IC50.

Exam item: Report IC50 for Fc1ccc(Nc2cnc(N3CCN(c4ncnc(Nc5cnn(C[C@@H]6CNCCO6)c5)n4)CC3)nc2)cc1 [Compound 200] tested on D816V Kit (Homo sapiens, UniProt P10721, D816V).
Marked response: 1.01 to 10 nM

Exam item: Now this one: CN1CCC(Cn2cc(Nc3ncnc(N4CCN(c5ncc(Cc6ccccc6)cn5)CC4)n3)cn2)CC1 [Compound 174]
Marked response: < 1 nM

Exam item: Repeat with Fc1ccc(Oc2cnc(N3CCN(c4ncnc(Nc5cnn(C[C@@H]6CNCCO6)c5)n4)CC3)nc2)cc1 [Compound 202]
Marked response: 1.01 to 10 nM

Exam item: What do you get for Cc1nn(C2COC2)cc1Nc1ncnc(N2CCN(c3ncc(Sc4ccccc4F)cn3)CC2)n1 [Compound 146] ?
Marked response: 1.01 to 10 nM

Exam item: Next: c1ccc(Cc2cnc(N3CCN(c4ncnc(Nc5cnn(CC6CCCNC6)c5)n4)CC3)nc2)cc1 (stereo not drawn) [Compound 117]
Marked response: < 1 nM

###

Target or system wild type Kit (Homo sapiens); recorded quantity IC50.

Worked examples follow.
# molecule, measuredParameter, recordedResult
rows = [
    ("NCc1cccc(Nc2ncnc(N3CCN(c4ncc(Cc5ccccc5)cn4)CC3)n2)c1", "IC50", "11 to 100 nM"),
    ("c1ccc(Cc2cnc(N3CCN(c4ncnc(Nc5ccc(O[C@H]6CCCNC6)cc5)n4)CC3)nc2)cc1", "IC50", "< 10 nM"),
    ("FC1(F)CN(Cc2cccc(Nc3ncnc(N4CCN(c5ncc(Cc6ccccc6)cn5)CC4)n3)c2)C1", "IC50", "11 to 100 nM"),
    ("NS(=O)(=O)c1cccc(Nc2ncnc(N3CCN(c4ncc(Cc5ccccc5)cn4)CC3)n2)c1", "IC50", "11 to 100 nM"),
    ("c1ccc(Cc2cnc(N3CCN(c4ncnc(Nc5ccc(N6CCNCC6)cc5)n4)CC3)nc2)cc1", "IC50", "< 10 nM"),
    ("CC(O)c1cccc(Nc2ncnc(N3CCN(c4ncc(Cc5ccccc5)cn4)CC3)n2)c1 (stereo not shown)", "IC50", "11 to 100 nM"),
    ("c1ccc(Cc2cnc(N3CCN(c4ncnc(Nc5cnn(C[C@H]6CNCCO6)c5)n4)CC3)nc2)cc1", "IC50", "< 10 nM"),
    ("OCCN1CCc2ccc(Nc3ncnc(N4CCN(c5ncc(Cc6ccccc6)cn5)CC4)n3)cc2C1", "IC50", "< 10 nM"),
]

Exam item: Reported IC50, molecule `CS(=O)(=O)c1ccc(Nc2ncnc(N3CCN(c4ncc(Cc5ccccc5)cn4)CC3)n2)cc1` : ____
Marked response: 11 to 100 nM

###

systemUnderTest: Kit D816V (HMC1.2 cells, Kit V560G and D816V) (Homo sapiens, UniProt P10721, D816V/V560G)
Construct: endogenous in cells
Sequence (P10721 26-976 V560G/D816V): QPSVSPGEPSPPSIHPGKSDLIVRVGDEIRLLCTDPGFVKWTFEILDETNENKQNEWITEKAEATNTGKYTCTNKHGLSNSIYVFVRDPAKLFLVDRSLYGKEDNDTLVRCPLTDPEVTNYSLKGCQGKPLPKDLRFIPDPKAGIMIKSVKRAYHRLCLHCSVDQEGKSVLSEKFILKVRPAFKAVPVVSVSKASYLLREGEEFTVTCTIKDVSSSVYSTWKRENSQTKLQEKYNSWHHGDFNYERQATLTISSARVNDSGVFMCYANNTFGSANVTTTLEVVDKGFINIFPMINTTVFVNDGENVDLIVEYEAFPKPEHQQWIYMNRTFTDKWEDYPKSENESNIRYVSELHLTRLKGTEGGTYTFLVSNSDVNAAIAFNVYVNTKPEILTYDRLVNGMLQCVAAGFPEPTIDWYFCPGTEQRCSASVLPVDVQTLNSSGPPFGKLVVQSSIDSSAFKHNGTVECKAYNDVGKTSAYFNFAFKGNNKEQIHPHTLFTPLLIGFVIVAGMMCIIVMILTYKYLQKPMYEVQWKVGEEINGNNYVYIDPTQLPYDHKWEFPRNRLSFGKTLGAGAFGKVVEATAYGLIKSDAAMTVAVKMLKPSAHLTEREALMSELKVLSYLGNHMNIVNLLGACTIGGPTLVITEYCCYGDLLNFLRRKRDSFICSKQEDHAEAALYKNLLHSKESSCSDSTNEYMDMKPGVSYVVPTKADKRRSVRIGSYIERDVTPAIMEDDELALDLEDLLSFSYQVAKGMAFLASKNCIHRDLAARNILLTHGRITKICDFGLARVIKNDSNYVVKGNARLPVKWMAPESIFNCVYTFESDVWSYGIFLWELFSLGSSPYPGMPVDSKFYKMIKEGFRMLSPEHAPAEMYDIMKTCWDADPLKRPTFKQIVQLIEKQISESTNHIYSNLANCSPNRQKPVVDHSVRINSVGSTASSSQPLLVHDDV
assayOverview: HMC1.2 autophosphorylation assay (AlphaLISA, phospho-Y719 c-Kit)
recordedConditions: Kit autophosphorylation at tyrosine 719, 90 minutes, read-out: Cellular Activity
pIC50: −log10 of the molar value.
measuredParameter: pIC50

Example entries and their recorded answers appear below.
# molecule, recordedResult
rows = [
    ("O[C@H]1CCCN(c2ccc(Nc3ncnc(N4CCN(c5ncc(Cc6ccc(F)cc6)cn5)CC4)n3)cc2)C1", "> 8.00"),
    ("C[C@@H](c1ccccc1)c1cnc(N2CCN(c3ncnc(Nc4ccc(N5CCC[C@@H](O)C5)cc4)n3)CC2)nc1", "7.00 to 8.00"),
    ("c1ccc(Cc2cnc(N3CCN(c4ncnc(Nc5cnn(C[C@@H]6CNCCO6)c5)n4)CC3)nc2)cc1", "7.00 to 8.00"),
    ("c1ccc(Cc2cnc(N3CCN(c4ncnc(Nc5cnn(C[C@H]6CCCN6)c5)n4)CC3)nc2)cc1", "7.00 to 8.00"),
    ("C[C@H](O)Cn1cc(Nc2ncnc(N3CCN(c4ncc(Cc5ccccc5)cn4)CC3)n2)cn1", "7.00 to 8.00"),
    ("Cc1[nH]ncc1Nc1ncnc(N2CCN(c3ncc(Sc4ccccc4F)cn3)CC2)n1", "7.00 to 8.00"),
]

Now turn to the next molecule.
Exam item: Return pIC50 measured with Kit D816V (HMC1.2 cells, Kit V560G and D816V) (Homo sapiens, UniProt P10721, D816V/V560G) given this molecule: c1ccc(Cc2cnc(N3CCN(c4ncnc(Nc5cccc(C6CCCNC6)c5)n4)CC3)nc2)cc1 (centres unmarked)
Marked response: 7.00 to 8.00
